Tested on: Candida albicans
Assay: Antifungal activity against Candida albicans MTCC 227 after 2 to 3 days by agar well diffusion method
Assay type: functional

{"columns": ["molecule", "MIC [mg/L]"],
 "data": [
  ["O=C(NCCNc1ccnc2c(F)cc(F)cc12)Nc1cc(C(F)(F)F)ccc1Cl", 20],
  ["O=C(NCCNc1ccnc2c(F)cc(F)cc12)Nc1ccc(C(F)(F)F)cc1", 90],
  ["O=c1cc[nH]c2c(F)cc(F)cc12 [6,8-DIFLUOROQUINOLIN-4(1H)-ONE]", 90],
  ["O=C(NCCNc1ccnc2c(F)cc(F)cc12)Nc1ccccc1OC(F)(F)F", 80],
  ["CC(C)c1ccc(NC(=O)NCCNc2ccnc3c(F)cc(F)cc23)cc1", 45]
]}

====

The entries below come with measured MIC values attached.
Test system: Candida albicans
Experiment: Antifungal activity against Candida albicans MTCC 227 after 2 to 3 days by agar well diffusion method
Format: functional

{"columns": ["compound", "MIC"],
 "data": [
  ["O=C(NCCNc1ccnc2c(F)cc(F)cc12)Nc1ccc(OC(F)(F)F)cc1", "90 µg/mL"],
  ["Cc1ccc(F)cc1NC(=O)NCCNc1ccnc2c(F)cc(F)cc12", "25 µg/mL"],
  ["O=C(NCCNc1ccnc2c(F)cc(F)cc12)Nc1ccccc1F", "15 µg/mL"],
  ["Cc1ccc(NC(=O)NCCNc2ccnc3c(F)cc(F)cc23)cc1C", "25 µg/mL"],
  ["O=C(NCCNc1ccnc2c(F)cc(F)cc12)Nc1ccccc1C(F)(F)F", "15 µg/mL"],
  ["Clc1ccc(COC(Cn2ccnc2)c2ccc(Cl)cc2Cl)c(Cl)c1 (stereo not drawn) [MICONAZOLE]", "20 µg/mL"],
  ["Fc1cc(F)c2nccc(Cl)c2c1 [4-CHLORO-6,8-DIFLUOROQUINOLINE]", "90 µg/mL"],
  ["O=C(NCCNc1ccnc2c(F)cc(F)cc12)Nc1cccc(Cl)c1F", "40 µg/mL"]
]}

====

Test system: Aspergillus niger
Assay: Antifungal activity against Aspergillus niger MTCC 281 after 2 to 3 days by agar well diffusion method
Format: functional
Threshold check on MIC: strictly below 30 µg/mL is Criterion met; on or above 30 µg/mL is Criterion not met.

{"columns": ["compound", "labelClass"],
 "data": [
  ["Fc1cc(F)c2nccc(Cl)c2c1", "Criterion not met"],
  ["O=C(NCCNc1ccnc2c(F)cc(F)cc12)Nc1ccccc1C(F)(F)F", "Criterion met"],
  ["O=C(NCCNc1ccnc2c(F)cc(F)cc12)Nc1cccc(Cl)c1F", "Criterion not met"],
  ["CC(C)c1ccc(NC(=O)NCCNc2ccnc3c(F)cc(F)cc23)cc1", "Criterion not met"],
  ["O=C(NCCNc1ccnc2c(F)cc(F)cc12)Nc1cc(C(F)(F)F)ccc1Cl", "Criterion met"],
  ["O=C(NCCNc1ccnc2c(F)cc(F)cc12)Nc1ccccc1OC(F)(F)F", "Criterion not met"],
  ["O=C(NCCNc1ccnc2c(F)cc(F)cc12)Nc1ccccc1F", "Criterion met"],
  ["Cc1ccc(NC(=O)NCCNc2ccnc3c(F)cc(F)cc23)cc1C", "Criterion not met"],
  ["Clc1ccc(COC(Cn2ccnc2)c2ccc(Cl)cc2Cl)c(Cl)c1 (stereo not given)", "Criterion met"]
]}
